Test system: BGC-823, liver cancer
assay-notes: preliminary anti-tumor screening in vitro, SRB method
Assay type: cell-based
assay-context: Homo sapiens, 1 μM, read-out: inhibition rates (%) BGC-823
// reported inhibition at 1 µM per item
Quick reminder: number only, in %, skip the unit.

# count of solved cases: 3
CC(C)C[C@H](NC(=O)[C@H](Cc1ccccc1)NC(=O)N[C@@H](Cc1ccccc1)C(=O)Nc1cnccn1)B(O)O	45.6
CC(C)C[C@H](NC(=O)N[C@@H](Cc1ccccc1)C(=O)Nc1cnccn1)B1OC2C[C@H]3C[C@H](C3(C)C)[C@@]2(C)O1 (stereo partly shown)	0.62
CC(C)C[C@H](NC(=O)[C@H](Cc1ccccc1)NC(=O)Nc1cccc(OCc2ccccc2)c1)B(O)O	34

Query the reported inhibition at 1 µM for BGC-823, liver cancer; item: CC(C)C[C@H](NC(=O)N[C@@H](Cc1ccccc1)C(=O)Nc1cccc(OCc2ccccc2)c1)B1OC2C[C@H]3C[C@H](C3(C)C)[C@@]2(C)O1 (stereo partly shown) 3.19

Lab note: need inhibition at 1 µM for `CC(C)C[C@H](NC(=O)[C@H](Cc1ccccc1)NC(=O)[C@H](Cc1ccccc1)NC(=O)Nc1cccc(OCc2ccccc2)c1)B(O)O` on BGC-823, liver cancer, anyone have it? 42.7

###

# IC50 annotations
Test system: MGC803 stomach cancer cells
assay-notes: anti-tumor activity in vitro (IC50), MTT
Format: cell-based
assay-context: Homo sapiens, MGC-803; stomach cancer cells, MTT, 72 h; read-out: IC50 (μM) MGC803
Report the figure in µM without appending any unit label.

CC(C)C[C@H](NC(=O)[C@H](Cc1ccccc1)NC(=O)NCc1ccccc1)B(O)O	0.0188

// switching to the query molecule
Reported IC50, molecule `CC(C)C[C@H](NC(=O)[C@H](Cc1ccccc1)NC(=O)NCc1ccc(F)c(F)c1)B(O)O` : ____ 0.0067

###

Recorded inhibition at 0.1 µM for the following compounds
Test system: A549, human lung cancer
assay-notes: preliminary anti-tumor screening in vitro, SRB method
Type: cell-based
assay-context: 0.1 μM, read-out: inhibition rates (%) A549
Write it as a number; the unit % goes unstated.

Some compounds with known inhibition at 0.1 µM results, for comparison:
CC(C)C[C@H](NC(=O)N[C@@H](Cc1ccccc1)C(=O)Nc1cnccn1)B(O)O [Example 6]	-6.94
CC(C)C[C@H](NC(=O)N[C@H](Cc1ccccc1)C(=O)Nc1cnccn1)B(O)O [Example 10]	3.45
COc1ccc(OC)c(CNC(=O)N[C@@H](Cc2ccccc2)C(=O)N[C@@H](CC(C)C)B2OC3CC4CC(C4(C)C)[C@]3(C)O2)c1 (stereo partly shown) [Example 19]	53.1
COc1ccc(CNC(=O)[C@H](Cc2ccccc2)NC(=O)N[C@@H](CC(C)C)B(O)O)cc1 [Example 1]	1.44
CC(C)C[C@H](NC(=O)[C@H](Cc1ccccc1)NC(=O)N[C@@H](Cc1ccccc1)C(=O)Nc1cnccn1)B(O)O [Example 24]	29.5
COc1ccc(CNC(=O)N[C@@H](Cc2ccccc2)C(=O)N[C@@H](CC(C)C)B(O)O)cc1 [Example 15]	2.63

Which value of inhibition at 0.1 µM has been reported for CC(C)C[C@H](NC(=O)N[C@@H](Cc1ccccc1)C(=O)Nc1cccc(OCc2ccccc2)c1)B1OC2C[C@H]3C[C@H](C3(C)C)[C@@]2(C)O1 (stereo partly shown) [Example 5] in the records? 3.25
